- SYSTEM TESTED: μ opioid receptor (Homo sapiens, UniProt P35372)
- Sequence (P35372 whole entry, species assumed): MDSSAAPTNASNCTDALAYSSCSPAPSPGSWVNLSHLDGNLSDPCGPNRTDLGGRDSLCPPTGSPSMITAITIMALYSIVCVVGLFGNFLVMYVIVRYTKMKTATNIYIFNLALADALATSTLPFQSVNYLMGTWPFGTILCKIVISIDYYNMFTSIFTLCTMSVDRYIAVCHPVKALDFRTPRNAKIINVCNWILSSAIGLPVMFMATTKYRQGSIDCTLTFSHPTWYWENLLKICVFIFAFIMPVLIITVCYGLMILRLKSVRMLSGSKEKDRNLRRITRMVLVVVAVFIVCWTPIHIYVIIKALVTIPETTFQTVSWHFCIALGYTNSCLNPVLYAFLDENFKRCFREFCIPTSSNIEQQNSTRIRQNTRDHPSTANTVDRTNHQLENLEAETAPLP
- ASSAY SUMMARY: radioisotope ligand competitive binding assay, μ opioid receptor (MOR)
- RUN PARAMETERS: [3H]DAMGO 0.5 nM, cell membrane of stably transfected cells; read-out: μ IC50
pIC50: −log10 of the molar value. Counter-ions that a name gives are not always drawn.
EXPERIMENTAL ENDPOINT: pIC50

• CCCCCN(C)[C@H]1[C@H]2CCCCC[C@]1(C)c1cc(O)ccc1C2 [Hydrochloride of compound 33] = > 8.00

For the compound C[C@@]12CCCCC[C@@H](Cc3ccc(O)cc31)[C@@H]2N1CCCC1 [Hydrochloride of compound 29] , give its measured pIC50 value.
7.00 to 8.00

For the compound CN(CCc1ccccc1)[C@H]1[C@H]2CCCCC[C@]1(C)c1cc(O)ccc1C2 [Hydrochloride of compound 30] , give its measured pIC50 value.
> 8.00

For the compound CCCCCN[C@H]1[C@H]2CCCCC[C@]1(C)c1cc(O)ccc1C2 [Hydrochloride of compound 22] , give its measured pIC50 value.
> 8.00

For the compound CCCCN[C@H]1[C@H]2CCCCC[C@]1(C)c1cc(O)ccc1C2 [Hydrochloride of compound 21] , give its measured pIC50 value.
> 8.00

For the compound C[C@@]12CCCCC[C@@H](Cc3ccc(OCc4ccccc4)cc31)[C@@H]2N [Hydrochloride of compound 36] , give its measured pIC50 value.
7.00 to 8.00

For the compound CCCN(C)[C@H]1[C@H]2CCCCC[C@]1(C)c1cc(O)ccc1C2 [Hydrochloride of compound 31] , give its measured pIC50 value.
> 8.00

For the compound C[C@@]12CCCCC[C@@H](Cc3ccc(O)cc31)[C@@H]2NCc1ccccc1 [Hydrochloride of compound 26] , give its measured pIC50 value.
> 8.00

For the compound CN[C@H]1[C@H]2CCCCC[C@]1(C)c1cc(OCc3ccccc3)ccc1C2 [Hydrochloride of compound 38] , give its measured pIC50 value.
7.00 to 8.00

For the compound COc1ccc2c(c1)[C@@]1(C)CCCCC[C@@H](C2)[C@@H]1N(C)C [Hydrochloride of compound 11] , give its measured pIC50 value.
6.00 to 7.00

For the compound C[C@@]12CCCCC[C@@H](Cc3ccc(O)cc31)[C@@H]2NCC1CC1 [Hydrochloride of compound 24] , give its measured pIC50 value.
7.00 to 8.00

* * *

// IC50 lookup, one value per entry
- SYSTEM TESTED: UniProtKB P35372
- ASSAY SUMMARY: radioisotope ligand competitive binding assay, μ opioid receptor (MOR)
- RUN PARAMETERS: [3H]DAMGO 0.5 nM, cell membrane of stably transfected cells; read-out: μ IC50
Structures can show the parent of a compound that is named as a salt.

Consider the reported IC50 for these compounds:
• COc1ccc2c(c1)[C@@]1(C)CCCCC[C@@H](C2)[C@@H]1NCC1CC1 [Hydrochloride of compound 7] = 100 to 1000 nM
• CCCCN[C@H]1[C@H]2CCCCC[C@]1(C)c1cc(OC)ccc1C2 [Hydrochloride of compound 4] = 10 to 100 nM
• CC(C)N[C@H]1[C@H]2CCCCC[C@]1(C)c1cc(O)ccc1C2 [Hydrochloride of compound 23] = 10 to 100 nM

# lookup: UniProtKB P35372 IC50, key = CCCCN(C)[C@H]1[C@H]2CCCCC[C@]1(C)c1cc(O)ccc1C2 [Hydrochloride of compound 32]
< 10 nM

* * *

- SYSTEM TESTED: μ opioid receptor (Homo sapiens, UniProt P35372)
- ASSAY SUMMARY: radioisotope ligand competitive binding assay, μ opioid receptor (MOR)
- RUN PARAMETERS: [3H]DAMGO 0.5 nM, cell membrane of stably transfected cells; read-out: μ IC50
Structures can show the parent of a compound that is named as a salt.
// IC50 lookup, one value per entry

Consider the reported IC50 for these molecules:
* C[C@@]12CCCCC[C@@H](Cc3ccc(OCc4ccccc4)cc31)[C@@H]2NCc1ccccc1 [Hydrochloride of compound 39] | < 10 nM
* CCCN[C@H]1[C@H]2CCCCC[C@]1(C)c1cc(OC)ccc1C2 [Hydrochloride of compound 3] | 10 to 100 nM

For the molecule CCCCCN(C)[C@H]1[C@H]2CCCCC[C@]1(C)c1cc(OC)ccc1C2 [Hydrochloride of compound 16] , give its measured IC50 value.
100 to 1000 nM

For the molecule CCCN(C)[C@H]1[C@H]2CCCCC[C@]1(C)c1cc(OC)ccc1C2 [Hydrochloride of compound 14] , give its measured IC50 value.
100 to 1000 nM

For the molecule COc1ccc2c(c1)[C@@]1(C)CCCCC[C@@H](C2)[C@@H]1NCCc1ccccc1 [Hydrochloride of compound 8] , give its measured IC50 value.
10 to 100 nM

For the molecule CN[C@H]1[C@H]2CCCCC[C@]1(C)c1cc(OC)ccc1C2 [Hydrochloride of compound 1] , give its measured IC50 value.
100 to 1000 nM

For the molecule COc1ccc2c(c1)[C@@]1(C)CCCCC[C@@H](C2)[C@@H]1NCCc1ccc(Cl)c(Cl)c1 [Hydrochloride of compound 10] , give its measured IC50 value.
100 to 1000 nM

For the molecule C[C@@]12CCCCC[C@@H](Cc3ccc(O)cc31)[C@@H]2NCCc1ccccc1 [Hydrochloride of compound 25] , give its measured IC50 value.
< 10 nM

* * *

- SYSTEM TESTED: μ opioid receptor (Homo sapiens)
- ASSAY SUMMARY: radioisotope ligand competitive binding assay, μ opioid receptor (MOR)
pIC50: −log10 of the molar value. Where a name gives a salt, the structure may show the parent alone.
EXPERIMENTAL ENDPOINT: pIC50

For the compound CCOc1ccc2c(c1)[C@@]1(C)CCCCC[C@@H](C2)[C@@H]1N [Hydrochloride of compound 35] , give its measured pIC50 value.
6.00 to 7.00

* * *

- SYSTEM TESTED: δ opioid receptor (Homo sapiens, UniProt P41143)
- Sequence (P41143 whole entry): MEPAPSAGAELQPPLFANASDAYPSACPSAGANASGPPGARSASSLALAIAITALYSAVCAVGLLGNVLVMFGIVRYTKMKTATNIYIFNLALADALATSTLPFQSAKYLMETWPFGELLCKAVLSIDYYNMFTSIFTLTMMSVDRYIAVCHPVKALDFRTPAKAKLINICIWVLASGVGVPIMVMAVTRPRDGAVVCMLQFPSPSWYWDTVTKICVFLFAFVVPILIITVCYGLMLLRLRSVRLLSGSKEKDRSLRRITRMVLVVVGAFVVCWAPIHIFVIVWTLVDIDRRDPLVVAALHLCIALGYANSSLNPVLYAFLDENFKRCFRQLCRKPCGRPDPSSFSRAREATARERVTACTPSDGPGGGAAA
- ASSAY SUMMARY: radioisotope ligand competitive binding assay, δ opioid receptor (DOR)
- RUN PARAMETERS: [3H]-DADLE 0.5 nM, cell membrane of stably transfected cells; read-out: δ IC50
Where a name gives a salt, the structure may show the parent alone.
// IC50 lookup, one value per entry

Consider the reported IC50 for these molecules:
* COc1ccc2c(c1)[C@@]1(C)CCCCC[C@@H](C2)[C@@H]1NCCc1ccccc1 [Hydrochloride of compound 8] | > 10000 nM
* CCCCN[C@H]1[C@H]2CCCCC[C@]1(C)c1cc(O)ccc1C2 [Hydrochloride of compound 21] | 10 to 100 nM
* CCOc1ccc2c(c1)[C@@]1(C)CCCCC[C@@H](C2)[C@@H]1NC [Hydrochloride of compound 37] | > 10000 nM

For the molecule CCCN(C)[C@H]1[C@H]2CCCCC[C@]1(C)c1cc(OC)ccc1C2 [Hydrochloride of compound 14] , give its measured IC50 value.
> 10000 nM

For the molecule CCCCCN[C@H]1[C@H]2CCCCC[C@]1(C)c1cc(O)ccc1C2 [Hydrochloride of compound 22] , give its measured IC50 value.
10 to 100 nM

For the molecule COc1ccc2c(c1)[C@@]1(C)CCCCC[C@@H](C2)[C@@H]1N(C)CCc1ccccc1 [Hydrochloride of compound 13] , give its measured IC50 value.
> 10000 nM

For the molecule C[C@@]12CCCCC[C@@H](Cc3ccc(O)cc31)[C@@H]2NCC1CC1 [Hydrochloride of compound 24] , give its measured IC50 value.
1000 to 10000 nM

For the molecule COc1ccc2c(c1)[C@@]1(C)CCCCC[C@@H](C2)[C@@H]1NC(C)C [Hydrochloride of compound 6] , give its measured IC50 value.
> 10000 nM

* * *

// pIC50 lookup, one value per entry
- SYSTEM TESTED: UniProt:P41143
- ASSAY SUMMARY: radioisotope ligand competitive binding assay, δ opioid receptor (DOR)
- RUN PARAMETERS: [3H]-DADLE 0.5 nM, cell membrane of stably transfected cells; read-out: δ IC50
pIC50: −log10 of the molar value. Where a name gives a salt, the structure may show the parent alone.

- C[C@@]12CCCCC[C@@H](Cc3ccc(O)cc31)[C@@H]2NCc1ccccc1 [Hydrochloride of compound 26]: > 8.00
- COc1ccc2c(c1)[C@@]1(C)CCCCC[C@@H](C2)[C@@H]1N(C)C [Hydrochloride of compound 11]: < 5.00
- C[C@@]12CCCCC[C@@H](Cc3ccc(OCc4ccccc4)cc31)[C@@H]2NCc1ccccc1 [Hydrochloride of compound 39]: 6.00 to 7.00

Turning now to a further record.
# lookup: UniProt:P41143 pIC50, key = CCN[C@H]1[C@H]2CCCCC[C@]1(C)c1cc(O)ccc1C2 [Hydrochloride of compound 19]
5.00 to 6.00
